Data provenance is patent US11441138B2.

assay: Phase 1/2 study: plasma miglustat pharmacokinetics; format: in vivo, human; conditions: both sexes, human, plasma, po, 260 mg, plasma miglustat; High (about 260 mg oral) SD; geometric mean
observable: AUC(0-t)
Express the reported value numerically, then name its unit.

# get_value(readout='AUC(0-t)', item= CCCCN1C[C@H](O)[C@@H](O)[C@H](O)[C@H]1CO [miglustat] )
24000 ng·h/mL

---

test: Phase 1/2 study: plasma miglustat pharmacokinetics; format: in vivo, human; settings: both sexes, human, plasma, po, 130 mg, plasma miglustat; Low (about 130 mg oral) MD; arithmetic mean; read-out: Vz/F
observable: Vd/F (L)
Numbers only, in L.

Any idea what its Vd/F is? The compound is CCCCN1C[C@H](O)[C@@H](O)[C@H](O)[C@H]1CO
86.7
